target: CXCL3_HUMAN; experiment: BLI
readout-label: pKd
Scale for pKd: -log10 of concentration given in mol/L; no unit attached.

Q) Tell me the measured pKd of P1156_IXORI (other) ADDDNELFTVQYCGMNCTKDEGGTWTGCTGKKEGCKCYHESGKNYGLCLSTEYTDFSQYGNPSDSEIEAAKPKRSDTLSH , please.
A) 7.09
